- measurement.notes: inhibitors of E-selectin induction by TNFa, primary screen, imaging, HUVEC, immunofluorescence, MLSMR starter and 10KST1 sets (AID 487);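 on nuclei count: 100% = median nuclei count of all wells on the same plate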
- measurement.context: HUVEC TNFalpha-induced E-selectin immunofluorescence imaging, at 2 µM; measured here: cell number, toxicity
experimental.readout: nuclei count (%)
Give just the number in %; leave the unit off.

Study these solved cases before continuing.
[
  {
    "molecule": "Cc1cccn2c(=O)c3cc(C(N)=S)c(=N)n(CCCOC(C)C)c3nc12",
    "nuclei count [%]": 153
  },
  {
    "molecule": "COc1ccc(NC(=O)CSc2nnc(Cc3cccn3C)n2-c2ccc(F)cc2)cc1",
    "nuclei count [%]": 112
  },
  {
    "molecule": "CC1CCN(c2nc3c(c(=O)n(C)c(=O)n3C)n2Cc2ccccc2)CC1",
    "nuclei count [%]": 139
  },
  {
    "molecule": "O=C(Nc1ccccc1)N(O)c1ccc(Cl)cc1",
    "nuclei count [%]": 85.6
  }
]

# context switch: different molecule, same nuclei count
Incoming: Which nuclei count value is on record for `COc1ccc(-c2nnn(CC(=O)c3ccc4c(c3)OCCO4)n2)cc1OC` ?
Outgoing: 126

* * *

- measurement.notes: inhibitors of poly I:C-induced TLR3 signaling, primary screen, cell-based, poly I:C stimulus, luciferase, 10K MLSCN set (AID 602277)
- measurement.context: HEK293-TLR3 RL24 IRF3 luciferase reporter, at 10 µM, stronger effect = higher value
inhibition for assorted compounds
Give just the number in %; leave the unit off.

Study these solved cases before continuing.
[
  {
    "compound": "O=C(NCCC1=CCCCC1)C1CCN(C(=O)Nc2ccccc2)CC1",
    "obs.value": 21.5
  },
  {
    "compound": "O=C(NCC(c1cccnc1)N1CCOCC1)c1cccs1 (stereo not drawn)",
    "obs.value": 10.9
  },
  {
    "compound": "c1coc(CN(Cc2cccs2)Cc2nnnn2C2CCCCC2)c1",
    "obs.value": 24.5
  },
  {
    "compound": "Cc1nc2sc(C(c3cccs3)N3CC(C)CC(C)C3)c(O)n2n1 (stereo not drawn)",
    "obs.value": 21.5
  },
  {
    "compound": "COc1ccccc1CNC(=O)N[C@@H](Cc1ccccc1)C(=O)O",
    "obs.value": 22.6
  },
  {
    "compound": "CCOC(=O)CNC(=O)CSc1nc(N(C)C)nc(N2CCOCC2)n1",
    "obs.value": 26.3
  },
  {
    "compound": "c1ccc2c(Cn3ccnc3)c[nH]c2c1",
    "obs.value": 38.9
  },
  {
    "compound": "Cc1ccc(SCC(=O)NCCN2C(=O)CSC2=O)c(C)c1",
    "obs.value": 35.6
  },
  {
    "compound": "O=C(Nn1c(C2CC2)nc2ccccc2c1=O)c1ccco1",
    "obs.value": 23.5
  },
  {
    "compound": "Cn1c(C(=O)Nc2ccc3c(c2)OCO3)cc2c(=O)n(C)c3ccccc3c21",
    "obs.value": -11.2
  }
]

Incoming: Which inhibition value is on record for `CCOc1ccccc1NC(=O)CCSc1nc2n[nH]c(C)c2c(=N)n1-c1ccccc1Cl` ?
Outgoing: 5.23

Incoming: Which inhibition value is on record for `CCOC(=O)c1[nH]c2ccccc2c1NC(=O)C(C)(C)C` ?
Outgoing: 45.1

Incoming: Which inhibition value is on record for CCOC(=O)C(C)n1cnc2c(nnn2Cc2ccc(C)cc2)c1=O (stereo not drawn) ?
Outgoing: 20.1

Incoming: Which inhibition value is on record for `COc1ccccc1N1CCN(C(=O)c2ccc(S(=O)(=O)N3CCCCCC3)cc2)CC1` ?
Outgoing: -1.9

Incoming: Which inhibition value is on record for COc1ccc(Cl)cc1N1CC(c2nc3ccccc3[nH]2)CC1=O (stereo not drawn) ?
Outgoing: 16.9

Incoming: Which inhibition value is on record for `Cc1nnc(N(C)C(=O)Cc2ccc3c(c2)OCO3)s1` ?
Outgoing: 39.7

Incoming: Which inhibition value is on record for `Cc1ccc(-c2noc(CCC(=O)NCCc3ccccc3Cl)n2)cc1` ?
Outgoing: 21.8

Incoming: Which inhibition value is on record for CC(C)C(c1nnnn1C1CCCC1)N1CCCc2ccccc21 (stereo not drawn) ?
Outgoing: -6.74

* * *

- measurement.notes: inhibitors of E-selectin induction by TNFa, primary screen, imaging, HUVEC, immunofluorescence, MLSMR starter and 10KST1 sets (AID 487);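 on nuclei count: 100% = median nuclei count of all wells on the same plate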
- measurement.context: HUVEC TNFalpha-induced E-selectin immunofluorescence imaging, at 2 µM; measured here: cell number, toxicity
nuclei count for assorted molecules
Give just the number in %; leave the unit off.

Incoming: Which nuclei count value is on record for `Clc1cccc(-c2nnc(-c3ccccc3)o2)c1` ?
Outgoing: 124

* * *

- measurement.notes: inhibitors of E-selectin induction by TNFa, primary screen, imaging, HUVEC, immunofluorescence, MLSMR starter and 10KST1 sets (AID 487);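 on inhibition: signal is fraction of cell area covered by stained E-selectin grains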
- measurement.context: HUVEC TNFalpha-induced E-selectin immunofluorescence imaging, at 2 µM; stronger effect = higher value
Decide by inhibition: equal to or exceeding -50% means Satisfied, less means Not satisfied.

Answered cases to consult:
[
  {
    "molecule": "CCOC(=O)CNC(=O)CSc1nc(N)cc(N)n1",
    "cat": "Not satisfied"
  },
  {
    "molecule": "Cn1c(NC(=O)c2cccc(Cn3cc(Cl)cn3)c2)nc2ccccc21",
    "cat": "Not satisfied"
  },
  {
    "molecule": "CC(NC(=O)OCc1ccccc1)C(=O)OCN1C(=O)c2ccccc2C1=O (stereo unspecified)",
    "cat": "Not satisfied"
  },
  {
    "molecule": "COc1cccc(-c2cc(C(=O)N3CCc4ccccc4C3)no2)c1",
    "cat": "Satisfied"
  },
  {
    "molecule": "COC(=O)COc1ccc(Oc2nc(SC)nc(N(C)C)n2)nn1",
    "cat": "Not satisfied"
  },
  {
    "molecule": "OCCOCCNc1ncnc2c1cnn2-c1ccc(Cl)cc1",
    "cat": "Not satisfied"
  },
  {
    "molecule": "N#CCSc1nc2c(c(=O)n1Cc1ccco1)C1(CCCC1)Cc1ccccc1-2",
    "cat": "Not satisfied"
  },
  {
    "molecule": "CC1Cc2ccccc2N1S(=O)(=O)c1ccc2c(c1)n(C)c(=O)c(=O)n2C (stereo unspecified)",
    "cat": "Satisfied"
  },
  {
    "molecule": "Cc1cccc(-c2nnc3n2N=C(c2ccc(Br)cc2)CS3)c1",
    "cat": "Satisfied"
  },
  {
    "molecule": "CCN(CC)C(=O)CSc1nc2ccccc2c(=O)n1CC1CCCCC1",
    "cat": "Satisfied"
  }
]

Incoming: I'd appreciate it if you could say whether CCOC(=O)C(NC(C)=O)(NS(=O)(=O)c1ccccc1)C(F)(F)F (stereo unspecified) has inhibition at least equal to -50%.
Outgoing: Satisfied

Incoming: I'd appreciate it if you could say whether `COc1ccc2c(c1)cc(C(=O)O)n2C` has inhibition at least equal to -50%.
Outgoing: Satisfied

Incoming: I'd appreciate it if you could say whether `O=C(c1ccco1)N1CCN(c2cccc(Cl)c2)CC1` has inhibition at least equal to -50%.
Outgoing: Satisfied

Incoming: I'd appreciate it if you could say whether COC(=O)CSC1=C(C#N)C(c2ccc(F)cc2)CC(=O)N1 (stereo unspecified) has inhibition at least equal to -50%.
Outgoing: Satisfied

Incoming: I'd appreciate it if you could say whether `Cc1nn(C(=O)c2cc3sccc3[nH]2)c(C)c1C` has inhibition at least equal to -50%.
Outgoing: Not satisfied

Incoming: I'd appreciate it if you could say whether `COc1cc(OC)cc(-c2nc(N)n[nH]2)c1` has inhibition at least equal to -50%.
Outgoing: Satisfied

Incoming: I'd appreciate it if you could say whether Cc1ccc(C)c(S(=O)(=O)C(C#N)c2nc3ccccc3nc2N2CC(C)OC(C)C2)c1 (stereo unspecified) has inhibition at least equal to -50%.
Outgoing: Not satisfied

Incoming: I'd appreciate it if you could say whether OC(CNCC1COc2ccccc2O1)COCc1cccs1 (stereo unspecified) has inhibition at least equal to -50%.
Outgoing: Not satisfied

* * *

- measured.target: Voltage-gated potassium channel subunit beta-2 (Rattus norvegicus)
- measurement.notes: KvBeta enzyme negative modulators, primary screen, biochemical, NADPH fluorescence (AID 622);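 further: slope of raw intensity against log time taken from 70 to 1610 s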
- measurement.context: recombinant KvBeta, 4-cyanobenzaldehyde reduction, at 10 µM, stronger effect = higher value
experimental.readout: fluorescence slope
Answer as a number with no unit attached.

Study these solved cases before continuing.
[
  {
    "molecule": "COc1cc(C(O)c2nc3ccccc3n2C)cc(OC)c1OC (stereo not given)",
    "fluorescence slope": -0.453
  },
  {
    "molecule": "CCOC(=O)C1CCN(c2c(Nc3ccc4c(c3)OCCO4)c(=O)c2=O)CC1",
    "fluorescence slope": -0.622
  },
  {
    "molecule": "CCOc1cc(C(=O)Nc2ncccn2)cc(OCC)c1OCC",
    "fluorescence slope": -0.476
  },
  {
    "molecule": "CCOC(=O)C1CCN(c2c(NC3CCCc4ccccc43)c(=O)c2=O)CC1 (stereo not given)",
    "fluorescence slope": -0.571
  },
  {
    "molecule": "Cc1cc(C(=O)CSc2nnc(-c3ccco3)o2)c(C)n1CC1COc2ccccc2O1 (stereo not given)",
    "fluorescence slope": -0.516
  },
  {
    "molecule": "O=C1CC(C2CCCO2)C(=O)N1Cc1ccccc1 (stereo not given)",
    "fluorescence slope": -0.489
  },
  {
    "molecule": "Clc1ccc(COc2ccccn2)c(Cl)c1",
    "fluorescence slope": -0.387
  },
  {
    "molecule": "O=C(CN1CCN(c2cccc(Cl)c2)CC1)N1CCCC1",
    "fluorescence slope": -0.581
  }
]

Incoming: Which fluorescence slope value is on record for `COc1ccc(OC)c(Nc2ncnc3c2cnn3-c2ccccc2)c1` ?
Outgoing: -0.4

Incoming: Which fluorescence slope value is on record for `O=C(NCCc1c[nH]c2ccccc12)c1ccc(S(=O)(=O)NCc2ccco2)cc1` ?
Outgoing: -0.578

Incoming: Which fluorescence slope value is on record for CC(C(=O)Nc1ccccc1-c1ccccc1)N1CCOCC1 (stereo not given) ?
Outgoing: -0.527

Incoming: Which fluorescence slope value is on record for `O=C(Nc1nnc(-c2ccc(Cl)cc2)o1)C1CCCCC1` ?
Outgoing: -0.443

Incoming: Which fluorescence slope value is on record for `COc1cccc(C=NCCNC(=O)c2nonc2N)c1O` ?
Outgoing: -0.413
